- Target Desc: T1, IL6-R on U266 cells (human, UniProt P08887 20-468)
- T1 sequence (looked up): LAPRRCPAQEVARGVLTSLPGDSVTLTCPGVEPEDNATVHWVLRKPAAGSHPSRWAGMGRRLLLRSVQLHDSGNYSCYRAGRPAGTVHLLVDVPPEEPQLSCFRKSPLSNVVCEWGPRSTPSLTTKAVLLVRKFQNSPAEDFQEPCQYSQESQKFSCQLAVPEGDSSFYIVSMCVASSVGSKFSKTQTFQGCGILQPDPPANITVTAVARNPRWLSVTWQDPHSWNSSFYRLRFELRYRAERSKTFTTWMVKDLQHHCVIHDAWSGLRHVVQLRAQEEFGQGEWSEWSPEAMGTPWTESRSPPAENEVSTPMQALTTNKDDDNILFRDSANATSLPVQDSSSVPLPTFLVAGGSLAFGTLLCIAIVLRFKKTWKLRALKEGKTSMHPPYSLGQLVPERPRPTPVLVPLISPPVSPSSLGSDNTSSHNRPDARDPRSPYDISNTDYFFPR
- Assay: cell-based or functional assay
Readout Label: IC50, XG-1 proliferation with 1 mg/mL human serum albumin (nM)

Binder	Numeric Result
IL6R03 (VHH, also called PMP31A4; PMP 31 A4) VHH: EVQLVESGGGLVQAGGSLRLSCAASGSIFKVNAMGWYRQAPGKQRELVAGIISGGSTNYADSVKGRLTISRDNAKNTVYLQMNSLKPEDTAVYYCSFVTTNSDYDLGRDYWGQGTQVTVSS	17.5
IL6R14 (VHH, also called PMP40H5; PMP 40 H5) VHH: EVQLVESGGGLVQPGGSLRLSCAASGFSLDYYAIGWFRQAPGKEREGVSCMDSSSGTTSTYYSDSVKGRFTISRDDAKNTVYLQMNSLKPEDTAVYYCAADGHLNWGQRYVPCSQISWRGWNDYWGQGTQVTVSS	0.751
